Assign composite z-score to each entry below.
- system_name: Torsin-1A (Homo sapiens) (UniProt O14656)
- Sequence (O14656 whole entry, looked up): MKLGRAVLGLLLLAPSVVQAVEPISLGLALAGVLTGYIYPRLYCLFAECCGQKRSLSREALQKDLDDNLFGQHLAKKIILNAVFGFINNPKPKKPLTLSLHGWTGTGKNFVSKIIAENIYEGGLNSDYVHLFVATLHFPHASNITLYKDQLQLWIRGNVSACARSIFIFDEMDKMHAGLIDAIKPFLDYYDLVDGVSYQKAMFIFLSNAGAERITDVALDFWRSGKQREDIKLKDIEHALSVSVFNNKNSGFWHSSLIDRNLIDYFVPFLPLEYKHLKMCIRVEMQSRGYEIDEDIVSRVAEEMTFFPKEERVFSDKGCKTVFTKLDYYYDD
- protocol_summary: small-molecule binders of mutant TOR1A in lysate, primary screen, cell lysate, small-molecule microarray, COS7 lysate, 635/667 nm fluorescence (AID 1150);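 further: score pools 667 nm emission and signal to noise measuring lysate protein binding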
- test_context: COS7 hTOR1A mutant lysate, 635 nm fluorescence, higher = more signal
Answers are plain numbers.

// below: answered compounds
COc1cc(OC)c(C(O)C2C=CC3C(=O)N(C)C(=O)C3N2NC(=O)OC(C)(C)C)cc1Br (configuration not stated)    0.315
CC[C@H]1C2=C3C(CC[C@H]4C(OCc5ccc(F)cc5C(F)(F)F)OC[C@](C)([C@@H]34)N(C(=O)OC(C)(C)C)C2)C(COC)C1COC (some centres not stated)    -0.0476
COCCCNC(=O)[C@]1(CCS(=O)(=O)c2ccccc2)N=C(c2ccc(OCCCO)cc2)O[C@@H]1c1ccccc1CN=[N+]=[N-]    0.738
COC(=O)C(CC#Cc1ccc2c(c1)[C@]1(C(=O)N2)[C@H](c2ccccc2OCCO)N2[C@H](c3ccccc3)[C@H](c3ccccc3)OC(=O)[C@H]2[C@@H]1C(=O)NC[C@H](O)c1ccccc1)C(=O)OC    0.68
C=C(C(=O)CC[C@@H](OC(C)=O)c1ccc(CO)o1)C(C)C    -0.0059
CC1CC/C=C\[C@H]2OC34C=CCN(C(C)C)C(=O)[C@H]3N(CCCCCCO)C(=O)[C@@H]4C2C(=O)O1 (some centres not stated)    -1.19

In the following, a different compound is considered.
Request: Report composite z-score for [N-]=[N+]=Nc1ccccc1C[C@]1(C(N)=O)N=C(c2ccc(OCCCO)cc2)O[C@H]1c1ccccc1N=[N+]=[N-] please.
Response: 0.986
